target: human Nav1.8 (hNav1.8) ion channel (Homo sapiens, UniProt Q9Y5Y9); construct: expressed in transfected cells; test: Inhibition of human Nav1.8 stably expressed in SH-SY-5Y cells (membrane potential dye fluorescence assay); assay type: cell-based; settings: SH-SY-5Y hNav1.8 cells; FLIPR membrane potential dye; 10 μM pyrethroid, 250 nM TTX; test concentration range 100 μM-0.05 μM; read-out: hNav1.8 IC50
Sequence (Q9Y5Y9 whole entry): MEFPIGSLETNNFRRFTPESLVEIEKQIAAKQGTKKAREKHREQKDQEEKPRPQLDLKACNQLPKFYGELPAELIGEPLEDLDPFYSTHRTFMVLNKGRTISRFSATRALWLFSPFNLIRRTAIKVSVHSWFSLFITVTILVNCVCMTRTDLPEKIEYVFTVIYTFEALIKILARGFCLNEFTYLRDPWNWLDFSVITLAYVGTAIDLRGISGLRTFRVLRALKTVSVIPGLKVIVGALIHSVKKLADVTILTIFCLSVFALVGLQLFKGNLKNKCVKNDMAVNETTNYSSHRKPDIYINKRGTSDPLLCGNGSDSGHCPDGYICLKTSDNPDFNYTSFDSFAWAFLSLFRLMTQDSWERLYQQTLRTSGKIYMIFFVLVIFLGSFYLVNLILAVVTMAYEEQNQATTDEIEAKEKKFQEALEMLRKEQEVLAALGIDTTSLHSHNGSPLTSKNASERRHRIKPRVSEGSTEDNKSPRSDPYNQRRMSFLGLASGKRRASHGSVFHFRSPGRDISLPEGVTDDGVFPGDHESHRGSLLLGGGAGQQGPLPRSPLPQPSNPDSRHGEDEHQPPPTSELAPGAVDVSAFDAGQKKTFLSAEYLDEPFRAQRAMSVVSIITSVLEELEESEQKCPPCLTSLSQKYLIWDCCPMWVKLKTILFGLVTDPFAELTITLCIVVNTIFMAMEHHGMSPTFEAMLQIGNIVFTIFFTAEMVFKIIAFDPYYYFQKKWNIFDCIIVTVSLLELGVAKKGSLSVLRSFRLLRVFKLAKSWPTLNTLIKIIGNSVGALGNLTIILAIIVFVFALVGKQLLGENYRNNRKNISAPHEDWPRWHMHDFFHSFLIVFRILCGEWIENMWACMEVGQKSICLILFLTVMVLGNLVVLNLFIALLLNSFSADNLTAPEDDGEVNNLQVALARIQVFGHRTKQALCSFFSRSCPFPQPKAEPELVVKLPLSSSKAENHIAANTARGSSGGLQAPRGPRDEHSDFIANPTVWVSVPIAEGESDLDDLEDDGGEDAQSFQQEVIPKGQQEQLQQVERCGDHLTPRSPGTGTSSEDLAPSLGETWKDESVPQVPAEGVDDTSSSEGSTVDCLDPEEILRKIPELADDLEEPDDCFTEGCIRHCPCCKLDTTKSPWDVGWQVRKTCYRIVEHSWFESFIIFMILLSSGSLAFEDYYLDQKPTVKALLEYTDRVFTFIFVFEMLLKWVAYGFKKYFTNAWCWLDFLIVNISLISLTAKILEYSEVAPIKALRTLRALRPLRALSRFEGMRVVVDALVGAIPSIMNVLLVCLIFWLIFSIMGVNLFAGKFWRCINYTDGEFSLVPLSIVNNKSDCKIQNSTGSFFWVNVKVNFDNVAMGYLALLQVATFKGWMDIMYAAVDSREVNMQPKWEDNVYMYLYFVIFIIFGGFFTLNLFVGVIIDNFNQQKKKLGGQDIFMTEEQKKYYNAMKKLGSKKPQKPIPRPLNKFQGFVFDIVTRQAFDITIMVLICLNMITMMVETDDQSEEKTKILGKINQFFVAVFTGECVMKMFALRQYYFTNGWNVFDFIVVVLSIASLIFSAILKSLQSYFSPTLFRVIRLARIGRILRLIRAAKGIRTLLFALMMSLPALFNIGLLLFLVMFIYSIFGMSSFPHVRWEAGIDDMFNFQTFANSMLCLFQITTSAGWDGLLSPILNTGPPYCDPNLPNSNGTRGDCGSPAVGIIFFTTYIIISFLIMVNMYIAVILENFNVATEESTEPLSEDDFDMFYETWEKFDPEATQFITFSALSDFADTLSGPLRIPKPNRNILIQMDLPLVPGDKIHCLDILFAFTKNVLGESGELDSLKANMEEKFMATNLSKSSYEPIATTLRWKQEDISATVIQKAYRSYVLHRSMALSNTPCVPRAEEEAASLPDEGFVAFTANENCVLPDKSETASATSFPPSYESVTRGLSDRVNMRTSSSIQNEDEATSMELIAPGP
Counter-ions that a name gives are not always drawn.
label 1 if IC50 is below 1 µM. label 0 if not; exact matches included in label 0.

Molecule	Assay System	Discrete Label
Cc1cc(F)ccc1C(C)N1CC2CC1CN2C(=O)Nc1ccc(C(F)(F)F)cc1 (stereo not shown) [Example 65]	human Nav1.8 (hNav1.8) ion channel (Homo sapiens, UniProt Q9Y5Y9)	label 1
Cc1ccccc1C(C)N1CC2CC1CN2C(=O)Nc1ccc(OCCN2CCCC2=O)cc1 (stereo not shown) [Example 23]	human Nav1.8 (hNav1.8) ion channel (Homo sapiens, UniProt Q9Y5Y9)	label 0
C=CCOc1ccc(NC(=O)N2CC3CC2CN3C(C)c2ccccc2C)cc1 (stereo not shown) [Example 20]	human Nav1.8 (hNav1.8) ion channel (Homo sapiens, UniProt Q9Y5Y9)	label 0
Cc1ccc(Oc2ccc(NC(=O)N3CC4CC3CN4C(C)c3ccccc3Cl)cc2)cc1 (stereo not shown) [Example 139]	human Nav1.8 (hNav1.8) ion channel (Homo sapiens, UniProt Q9Y5Y9)	label 0
Cc1ccc(C(C)N2CC3CC2CN3C(=O)Nc2ccc(Oc3ccc(F)cc3)cc2)c(C)c1 (stereo not shown) [Example 117]	human Nav1.8 (hNav1.8) ion channel (Homo sapiens, UniProt Q9Y5Y9)	label 1
Cc1ccccc1CC(C)N1CC2CC1CN2C(=O)Nc1cccc(C(F)(F)F)c1 (stereo not shown) [Example 67]	human Nav1.8 (hNav1.8) ion channel (Homo sapiens, UniProt Q9Y5Y9)	label 0
CC(c1ccccc1Cl)N1CC2CC1CN2C(=O)c1ccc(Oc2ccc(F)cc2)cc1 (stereo not shown) [Example 152]	human Nav1.8 (hNav1.8) ion channel (Homo sapiens, UniProt Q9Y5Y9)	label 0
CC(c1c(F)cccc1Cl)N1CC2CC1CN2C(=O)c1ccc(Oc2ccc(F)cc2)cc1 (stereo not shown) [Example 168]	human Nav1.8 (hNav1.8) ion channel (Homo sapiens, UniProt Q9Y5Y9)	label 0
Cc1ccccc1C(C)N1CC2CC1CN2C(=O)Nc1ccc(OCCN2CCOCC2)cc1 (stereo not shown) [Example 44]	human Nav1.8 (hNav1.8) ion channel (Homo sapiens, UniProt Q9Y5Y9)	label 0
O=C(Nc1ccc(Oc2ccc(F)cc2)cc1)N1CCC2(CCN(Cc3ccccc3)C2)C1 (stereo not shown) [Example 103]	human Nav1.8 (hNav1.8) ion channel (Homo sapiens, UniProt Q9Y5Y9)	label 1
Cc1ccccc1C(C)N1CC2CC1CN2C(=O)Nc1ccc(Cc2ccccc2)cc1 (stereo not shown) [Example 35]	human Nav1.8 (hNav1.8) ion channel (Homo sapiens, UniProt Q9Y5Y9)	label 1
CC(c1ccccc1Cl)N1CC2CC1CN2C(=O)Nc1ccc(Oc2ccccc2)cc1 (single isomer, unassigned) [Example 11]	human Nav1.8 (hNav1.8) ion channel (Homo sapiens, UniProt Q9Y5Y9)	label 0
CC(c1ccccc1Cl)N1CC2CC1CN2C(=O)Nc1ccc(Oc2ccc(F)cc2)nc1 (stereo not shown) [Example 182, methanesulfonate salt]	human Nav1.8 (hNav1.8) ion channel (Homo sapiens, UniProt Q9Y5Y9)	label 1
CC(c1ccccc1Cl)N1CC2CC1CN2C(=O)N(C)c1ccc(Oc2ccc(F)cc2)cc1 (stereo not shown) [Example 143]	human Nav1.8 (hNav1.8) ion channel (Homo sapiens, UniProt Q9Y5Y9)	label 0
CC(c1ccccc1Cl)N1CC2CC1CN2C(=O)Nc1ccc(Oc2ccc(F)cc2)c(F)c1 (stereo not shown) [Example 110]	human Nav1.8 (hNav1.8) ion channel (Homo sapiens, UniProt Q9Y5Y9)	label 1
CC(c1c(F)cccc1F)N1CC2CC1CN2C(=O)Nc1ccc(Oc2ccccc2)cc1 (stereo not shown) [Example 10]	human Nav1.8 (hNav1.8) ion channel (Homo sapiens, UniProt Q9Y5Y9)	label 0

----------
Listed below: pIC50 values for each entry.
molecular target: human Nav1.8 (hNav1.8) ion channel (Homo sapiens, UniProt Q9Y5Y9); construct: expressed in transfected cells; assay: Inhibition of human Nav1.8 stably expressed in SH-SY-5Y cells (membrane potential dye fluorescence assay); format: cell-based; conditions: SH-SY-5Y hNav1.8 cells; FLIPR membrane potential dye; 10 μM pyrethroid, 250 nM TTX; test concentration range 100 μM-0.05 μM; read-out: hNav1.8 IC50
pIC50: −log10 of the molar value.
Observed Property: pIC50

Molecule	Assay System	Relation Operator	Result
CC(c1ccc(F)cc1)N1CC2CC1CN2C(=O)Nc1ccc(Oc2ccccc2)cc1 (stereo not drawn) [Example 51]	human Nav1.8 (hNav1.8) ion channel (Homo sapiens, UniProt Q9Y5Y9)	=	6.39
CC(c1ccccc1C(F)(F)F)N1CC2CC1CN2C(=O)Nc1ccc(C(F)(F)F)cc1 (single isomer, unassigned) [Example 54]	human Nav1.8 (hNav1.8) ion channel (Homo sapiens, UniProt Q9Y5Y9)	=	5.76
Cc1cc(F)ccc1C(C)N1CC2CC1CN2C(=O)Nc1ccc(C(=O)c2ccccc2)cc1 (stereo not drawn) [Example 72]	human Nav1.8 (hNav1.8) ion channel (Homo sapiens, UniProt Q9Y5Y9)	=	5.65
CC(c1ccccn1)N1CC2CC1CN2C(=O)c1ccc(Oc2ccc(F)cc2)cc1 (stereo not drawn)	human Nav1.8 (hNav1.8) ion channel (Homo sapiens, UniProt Q9Y5Y9)	=	5.00
CC(c1ccc(Cl)cc1Cl)N1CC2CC1CN2C(=O)Nc1ccc(Oc2ccc(F)cc2)cc1 (stereo not drawn) [Example 118]	human Nav1.8 (hNav1.8) ion channel (Homo sapiens, UniProt Q9Y5Y9)	=	4.75
CC(c1ccc(F)cc1)N1CC2CC1CN2C(=O)Nc1cccc(Oc2ccccc2)c1 (stereo not drawn) [Example 49]	human Nav1.8 (hNav1.8) ion channel (Homo sapiens, UniProt Q9Y5Y9)	=	5.97
CC(c1ccc(C#N)cc1)N1CC2CC1CN2C(=O)Nc1ccc(Oc2ccc(F)cc2)cc1 (stereo not drawn) [Example 91]	human Nav1.8 (hNav1.8) ion channel (Homo sapiens, UniProt Q9Y5Y9)	=	5.98
O=C(Nc1ccc(Oc2ccccc2)cc1)N1CC2CC1CN2C1Cc2ccccc2C1 (stereo not drawn)	human Nav1.8 (hNav1.8) ion channel (Homo sapiens, UniProt Q9Y5Y9)	=	6.70
CC(c1ccc(Cl)cc1Cl)N1CC2CC1CN2C(=O)Nc1ccc(Oc2ccc(F)cc2)cc1 (stereo not drawn) [Example 119]	human Nav1.8 (hNav1.8) ion channel (Homo sapiens, UniProt Q9Y5Y9)	=	4.68
CC(c1ccccc1C(F)(F)F)N1CC2CC1CN2C(=O)Nc1cccc(C(F)(F)F)c1 (stereo not drawn) [Example 57]	human Nav1.8 (hNav1.8) ion channel (Homo sapiens, UniProt Q9Y5Y9)	=	5.29
CC(c1ccccc1C(F)(F)F)N1CC2CC1CN2C(=O)Nc1ccc(Oc2ccccc2)cc1 (single isomer, unassigned) [Example 60]	human Nav1.8 (hNav1.8) ion channel (Homo sapiens, UniProt Q9Y5Y9)	=	5.83
Cc1ccccc1C(C)N1CC2CC1CN2C(=O)Nc1ccc(OCCN(C)C)cc1 (stereo not drawn)	human Nav1.8 (hNav1.8) ion channel (Homo sapiens, UniProt Q9Y5Y9)	=	4.55
CC(c1ccc(F)cc1Cl)N1CC2CC1CN2C(=O)Nc1ccc(Oc2ccccc2)cc1 (stereo not drawn)	human Nav1.8 (hNav1.8) ion channel (Homo sapiens, UniProt Q9Y5Y9)	=	5.36
CC(c1ccccc1Cl)N1CC2CN(C(=O)Nc3ccc(Oc4ccc(F)cc4)cc3)CC2C1 (stereo not drawn)	human Nav1.8 (hNav1.8) ion channel (Homo sapiens, UniProt Q9Y5Y9)	=	5.95
O=C(Nc1ccc(C(F)(F)F)cc1)N1CC2CC1CN2C1CCc2cc(F)ccc2C1 (stereo not drawn)	human Nav1.8 (hNav1.8) ion channel (Homo sapiens, UniProt Q9Y5Y9)	=	6.19
COCCOCCOc1ccc(NC(=O)N2CC3CC2CN3C(C)c2ccccc2C)cc1 (stereo not drawn)	human Nav1.8 (hNav1.8) ion channel (Homo sapiens, UniProt Q9Y5Y9)	≤	4.52
CCOCCOCCOc1ccc(NC(=O)N2CC3CC2CN3C(C)c2ccccc2C)cc1 (stereo not drawn)	human Nav1.8 (hNav1.8) ion channel (Homo sapiens, UniProt Q9Y5Y9)	=	4.59
Cc1ccccc1C(C)N1CC2CC1CN2C(=O)Nc1ccc(C(O)c2ccccc2)cc1 (stereo not drawn)	human Nav1.8 (hNav1.8) ion channel (Homo sapiens, UniProt Q9Y5Y9)	=	5.21
CC(c1ccc(C#N)cc1)N1CC2CC1CN2C(=O)Nc1ccc(Oc2ccc(F)cc2)cc1 (stereo not drawn) [Example 90]	human Nav1.8 (hNav1.8) ion channel (Homo sapiens, UniProt Q9Y5Y9)	=	5.85
O=C(Nc1ccc(Oc2ccccc2)cc1)N1CC2CN(Cc3ccccc3)CC2C1 (stereo not drawn)	human Nav1.8 (hNav1.8) ion channel (Homo sapiens, UniProt Q9Y5Y9)	=	6.40
CC(c1ccc(F)cc1)N1CC2CC1CN2C(=O)Nc1cccc(Oc2ccccc2)c1 (stereo not drawn) [Example 52]	human Nav1.8 (hNav1.8) ion channel (Homo sapiens, UniProt Q9Y5Y9)	=	6.05
CC(c1ccc(F)cc1Cl)N1CC2CC1CN2C(=O)Nc1ccc(Oc2ccc(F)cc2)cc1 (stereo not drawn) [Example 132]	human Nav1.8 (hNav1.8) ion channel (Homo sapiens, UniProt Q9Y5Y9)	=	5.94
CC(Cc1ccc(F)cc1)N1CC2CC1CN2C(=O)Nc1ccc(C(F)(F)F)cc1 (stereo not drawn)	human Nav1.8 (hNav1.8) ion channel (Homo sapiens, UniProt Q9Y5Y9)	=	6.31
Cc1ccsc1C(C)N1CC2CC1CN2C(=O)Nc1ccc(Oc2ccccc2)cc1 (stereo not drawn)	human Nav1.8 (hNav1.8) ion channel (Homo sapiens, UniProt Q9Y5Y9)	=	6.05
CC(c1ccccc1C(F)(F)F)N1CC2CC1CN2C(=O)Nc1cccc(Oc2ccccc2)c1 (stereo not drawn) [Example 61]	human Nav1.8 (hNav1.8) ion channel (Homo sapiens, UniProt Q9Y5Y9)	=	5.33
O=C(NCc1ccc(Oc2ccc(F)cc2)cc1)N1CC2CC1CN2C1Cc2ccc(F)cc2C1 (stereo not drawn)	human Nav1.8 (hNav1.8) ion channel (Homo sapiens, UniProt Q9Y5Y9)	=	5.89
CC(c1ccc(F)cc1)N1CC2CC1CN2C(=O)Nc1ccc(C(F)(F)F)cc1 (stereo not drawn) [Example 46]	human Nav1.8 (hNav1.8) ion channel (Homo sapiens, UniProt Q9Y5Y9)	=	5.88
CC(c1ccc(F)cc1Cl)N1CC2CC1CN2C(=O)c1ccc(Oc2ccc(F)cc2)cc1 (stereo not drawn) [Example 164]	human Nav1.8 (hNav1.8) ion channel (Homo sapiens, UniProt Q9Y5Y9)	=	4.87
Cc1ccccc1C(C)N1CC2CC1CN2C(=O)Nc1ccc(-c2ccccc2)cc1 (stereo not drawn) [Example 39]	human Nav1.8 (hNav1.8) ion channel (Homo sapiens, UniProt Q9Y5Y9)	=	5.97
CC(c1ccccc1Cl)N1CC2CC1CN2C(=O)Nc1ccc(Oc2ccc(F)cc2)cc1 (single isomer, unassigned) [Example 73]	human Nav1.8 (hNav1.8) ion channel (Homo sapiens, UniProt Q9Y5Y9)	=	5.95
O=C(Nc1ccc(Oc2ccc(F)cc2)cc1)N1CC2CC1CN2C1CCc2cc(F)ccc2C1 (stereo not drawn)	human Nav1.8 (hNav1.8) ion channel (Homo sapiens, UniProt Q9Y5Y9)	=	6.15
Cc1ccccc1C(C)N1CC2CC1CN2C(=O)Nc1ccc(OCc2ccccc2)cc1 (stereo not drawn) [Example 33]	human Nav1.8 (hNav1.8) ion channel (Homo sapiens, UniProt Q9Y5Y9)	=	6.31
Cc1ccccc1C(C)N1CC2CC1CN2C(=O)Nc1ccc(C(F)(F)F)cc1 (stereo not drawn)	human Nav1.8 (hNav1.8) ion channel (Homo sapiens, UniProt Q9Y5Y9)	=	6.00
